# assay.text: qHTS of pediatric cancer cell lines to identify multiple opportunities for drug repurposing: Primary screen for Rh18 cells (AID 1347102); note: nearly all actives have a fitted effect of over 65% in size
# protocol.conditions: Rh18 rhabdomyosarcoma viability, CellTiter-Glo luminescence, 48 h; series mostly up to 46 µM
Inconclusive results are not listed. Activity calls are given as the source filed them. Calls come from the whole dose curve; as a rule, active = well fitted cell-killing curve with a large enough effect; inconclusive = small, poorly fitted or top-dose-only effect; inactive = flat fitted curve, though single readings scatter.
Pick from active, inactive when you respond.

| molecule | class.assignment |
| --- | --- |
| CCOc1ccc(Cc2cc([C@@H]3O[C@H](CO)[C@@H](O)[C@H](O)[C@@H]3O)ccc2Cl)cc1 | inactive |
| Cc1cc([C@@H](C)Nc2ccccc2C(=O)O)c2nc(N3CCOCC3)cc(=O)n2c1 | active |
| CCc1cc(Nc2nccc(-c3c(-c4ccc(OC)c(C(=O)Nc5c(F)cccc5F)c4)nc4ccccn34)n2)c(OC)cc1N1CCC(N2CCN(S(C)(=O)=O)CC2)CC1 | inactive |

Data request: Dear all, I need the recorded test outcome for Cn1cnc([N+](=O)[O-])c1Sc1ncnc2nc[nH]c12 , thank you.
Data returned: inactive
